Exercise: for every item that follows, state its recorded antagonist pA2 (Schild, agonist NDP-MSH).
Molecular target: mouse melanocortin-3 receptor (mouse, UniProt P33033 1-323)
Sequence (P33033 whole entry): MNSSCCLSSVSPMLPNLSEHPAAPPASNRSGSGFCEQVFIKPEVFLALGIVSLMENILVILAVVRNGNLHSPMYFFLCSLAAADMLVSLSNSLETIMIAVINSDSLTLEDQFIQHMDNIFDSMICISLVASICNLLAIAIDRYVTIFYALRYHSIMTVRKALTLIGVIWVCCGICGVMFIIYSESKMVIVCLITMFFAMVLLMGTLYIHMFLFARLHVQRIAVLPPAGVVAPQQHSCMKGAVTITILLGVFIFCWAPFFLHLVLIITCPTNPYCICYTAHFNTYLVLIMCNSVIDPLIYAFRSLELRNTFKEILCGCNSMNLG
Assay: cell-based or functional assay
Square brackets hold non-standard residues; d marks the D form. hPhe = N[C@@H](CCc1ccccc1)C(=O)O; Nle = CCCC[C@H](N)C(=O)O
# respond with the number and nothing more

Q: Can you look up the measured antagonist pA2 (Schild, agonist NDP-MSH) of cyclo(PRF[hPhe]RSF[dP]) (SMILES N=C(N)NCCC[C@@H]1NC(=O)[C@H](CCc2ccccc2)NC(=O)[C@H](Cc2ccccc2)NC(=O)[C@H](CCCNC(=N)N)NC(=O)[C@@H]2CCCN2C(=O)[C@H]2CCCN2C(=O)[C@H](Cc2ccccc2)NC(=O)[C@H](CO)NC1=O) [c[Pro-Arg-Phe-hPhe-Arg-Ser-Phe-DPro]] for me?
Result: 7.7

Q: What would you report for cyclo(PRF[hPhe]NS[Nle][dP]) (SMILES CCCC[C@@H]1NC(=O)[C@H](CO)NC(=O)[C@H](CC(N)=O)NC(=O)[C@H](CCc2ccccc2)NC(=O)[C@H](Cc2ccccc2)NC(=O)[C@H](CCCNC(=N)N)NC(=O)[C@@H]2CCCN2C(=O)[C@H]2CCCN2C1=O) [c[Pro-Arg-Phe-hPhe-Asn-Ser-Nle-DPro]] ?
Result: 6.3

Q: How about cyclo(PRF[hPhe]NSF[dP]) (SMILES N=C(N)NCCC[C@@H]1NC(=O)[C@@H]2CCCN2C(=O)[C@H]2CCCN2C(=O)[C@H](Cc2ccccc2)NC(=O)[C@H](CO)NC(=O)[C@H](CC(N)=O)NC(=O)[C@H](CCc2ccccc2)NC(=O)[C@H](Cc2ccccc2)NC1=O) [c[Pro-Arg-Phe-hPhe-Asn-Ser-Phe-DPro]] ?
Result: 6.5

Q: Now this one: cyclo(PRF[hPhe]RAF[dP]) (SMILES C[C@@H]1NC(=O)[C@H](CCCNC(=N)N)NC(=O)[C@H](CCc2ccccc2)NC(=O)[C@H](Cc2ccccc2)NC(=O)[C@H](CCCNC(=N)N)NC(=O)[C@@H]2CCCN2C(=O)[C@H]2CCCN2C(=O)[C@H](Cc2ccccc2)NC1=O) [c[Pro-Arg-Phe-hPhe-Arg-Ala-Phe-DPro]]
Result: 8

Q: Now this one: cyclo(PRFFNS[Nle][dP]) (SMILES CCCC[C@@H]1NC(=O)[C@H](CO)NC(=O)[C@H](CC(N)=O)NC(=O)[C@H](Cc2ccccc2)NC(=O)[C@H](Cc2ccccc2)NC(=O)[C@H](CCCNC(=N)N)NC(=O)[C@@H]2CCCN2C(=O)[C@H]2CCCN2C1=O) [c[Pro-Arg-Phe-Phe-Asn-Ser-Nle-DPro]]
Result: 6.6

Q: Then cyclo(PRFFRS[Nle][dP]) (SMILES CCCC[C@@H]1NC(=O)[C@H](CO)NC(=O)[C@H](CCCNC(=N)N)NC(=O)[C@H](Cc2ccccc2)NC(=O)[C@H](Cc2ccccc2)NC(=O)[C@H](CCCNC(=N)N)NC(=O)[C@@H]2CCCN2C(=O)[C@H]2CCCN2C1=O) [c[Pro-Arg-Phe-Phe-Arg-Ser-Nle-DPro]] ?
Result: 7.1
